Sourced from patent US4578400A

test.protocol: Solubility (physicochemical properties, Table 1)
study.conditions: water

| compound | solubility in water |
| --- | --- |
| CCCCCC(O)CCCC(=O)OCC (centres unmarked) [5-HDAE, Ethyl-5-hydroxy-decanoate] | sparingly |
| CCCCCC(O)CCCC(=O)O (centres unmarked) [5-HDA, 5-hydroxy-decanoic acid] | sparingly |

* * *

System: ouabain induced arrhythmia
test.protocol: Effect on ouabain induced arrhythmia
Type: in vivo, male hartley guinea pigs
study.conditions: oral, 100 mg/kg; control = 100; *P < 0.05 where starred
property.label: relative time for cardiac arrest to occur
Please reply with the value in numeric form only.

Worked examples follow.
| molecule | reported |
| --- | --- |
| CCCCCC(O)CCCC(=O)OCC(O)CO (stereo not shown) [5-HDA-DHP] | 122 |
| CCCCCC1CCCC(=O)O1 (stereo not drawn) [δ-DL, δ-decalactone] | 140 |
| CCCCCC(O)CCCC(=O)[O-].[Na+] (stereo not shown) | 136 |

Prompt line: Param readout= relative time for cardiac arrest to occur; system= ouabain induced arrhythmia; entry= CCCCCC(O)CCCC(=O)OCC (stereo not shown) [5-HDAE, Ethyl-5-hydroxy-decanoate] ; returns value.
Response line: 132

* * *

System: ouabain induced arrhythmia
test.protocol: Effect on ouabain induced arrhythmia
Type: in vivo, male hartley guinea pigs
study.conditions: oral, 100 mg/kg; control = 100; *P < 0.05
property.label: relative time for ventricular fibrillation to occur
Please reply with the value in numeric form only.

| compound | measurement.target | reported |
| --- | --- | --- |
| CCCCCC(O)CCCC(=O)OCC(O)CO (stereo not shown) [5-HDA-DHP] | ouabain induced arrhythmia | 139 |
| CCCCCC1CCCC(=O)O1 (stereo not drawn) [δ-DL, δ-decalactone] | ouabain induced arrhythmia | 137 |
| CCCCCC(O)CCCC(=O)[O-].[Na+] (stereo not shown) | ouabain induced arrhythmia | 144 |

Prompt line: Recorded relative time for ventricular fibrillation to occur for CCCCCC(O)CCCC(=O)OCC (stereo not shown) [5-HDAE, Ethyl-5-hydroxy-decanoate] , please?
Response line: 146

* * *

Test system: ouabain induced arrhythmia
test.protocol: Effect on ouabain induced arrhythmia
Assay type: in vivo, male hartley guinea pigs
study.conditions: oral, 100 mg/kg; control = 100
relative time for extrasystole to occur reference

Worked examples follow.
| compound | relative time for extrasystole to occur |
| --- | --- |
| CCCCCC(O)CCCC(=O)[O-].[Na+] (stereo not shown) | 160 |
| CCCCCC1CCCC(=O)O1 (stereo not shown) | 157 |
| CCCCCC(O)CCCC(=O)OCC (stereo not shown) [5-HDAE, Ethyl-5-hydroxy-decanoate] | 151 |

As a next step, examine the compound that follows.
Prompt line: Recorded relative time for extrasystole to occur for CCCCCC(O)CCCC(=O)OCC(O)CO (stereo not shown) , please?
Response line: 193

* * *

test.protocol: Solubility (physicochemical properties, Table 1)
study.conditions: benzene
property.label: solubility in benzene

| compound | property.label | reported |
| --- | --- | --- |
| CCCCCC(O)CCCC(=O)OCC (stereo not shown) [5-HDAE, Ethyl-5-hydroxy-decanoate] | solubility in benzene | easily |
| CCCCCC(O)CCCC(=O)O (stereo not shown) [5-HDA, 5-hydroxy-decanoic acid] | solubility in benzene | easily |
| CCCCCC1CCCC(=O)O1 (stereo not shown) | solubility in benzene | easily |
